Source of measurements: patent US12390467B2

Tested on: BT-20 (TNBC cell line)
Test: MTT cell viability assay, BT-20
Type: cell-based
Details: Homo sapiens, BT-20; MTT, 72 h; TNBC
Text: The following cancer and non-cancer cell lines were used in the initial cytotoxicity screening of the TPH104 compounds: triple negative breast cancer (TNBC): MDA-MB468, MDA-MB 231, and BT-20; non-TNBC: MCF-7 and ZR-75-1; ovarian: Ov2008; prostate: DU145; colon: HCT-116, S1, and LOVO; lung: H460; normal kidney: HEK-293; normal breast: HMEC; and normal colon: CRL-1459. […]
METRIC: IC50 (µM)
Numbers only; they are read as µM.

# query: IC50 | item `COc1ccc(O)c(/C=N/Nc2ncnc3scc(-c4ccc(C)cc4)c23)c1` | system: BT-20 (TNBC cell line) 0.29

----------
Test system: ZR-75-1 (non-TNBC cell line)
Experiment: MTT cell viability assay, ZR-75-1
Type: cell-based
Details: 72 h, read-out: IC50 ± SD, ZR-75-1
METRIC: IC50
Reply with a number, then the unit it belongs to.

IC50 lookup needed for COc1ccc(O)c(/C=N/Nc2ncnc3scc(-c4ccc(C)cc4)c23)c1 [TPH104] , thanks. 8.56 µM

----------
System: ZR-75-1 (non-TNBC cell line)
Test: MTT cell viability assay, ZR-75-1
Format: cell-based
Details: Homo sapiens, ZR-75-1, 72 h, read-out: IC50 ± SD, ZR-75-1
pIC50: −log10 of the molar value.
Note to self: values exactly at 5 are criterion met. So pIC50 at or above 5 is criterion met, below is criterion not met.

{"MOLECULE": "Oc1cc(Br)ccc1/C=N/Nc1ncnc2scc(-c3ccccc3)c12 [TPH104k]", "CLASS": "criterion met"}
{"MOLECULE": "COc1cc(OC)c(OC)cc1/C=N/Nc1ncnc2scc(-c3ccc(Cl)cc3)c12 [TPH104p]", "CLASS": "criterion not met"}
{"MOLECULE": "COc1cc(/C=N/Nc2ncnc3scc(-c4ccccc4)c23)ccc1O [TPH104q]", "CLASS": "criterion not met"}
{"MOLECULE": "COc1cccc(/C=N/Nc2ncnc3scc(-c4ccccc4)c23)c1OC [TPH104h]", "CLASS": "criterion not met"}
{"MOLECULE": "Oc1ccccc1/C=N/Nc1ncnc2scc(-c3ccccc3)c12 [TPH104j]", "CLASS": "criterion met"}
{"MOLECULE": "Oc1ccccc1/C=N/Nc1ncnc2scc(-c3ccc(Cl)cc3)c12 [TPH104a]", "CLASS": "criterion met"}

Could you verify whether the entry COc1cc(OC)c(OC)cc1/C=N/Nc1ncnc2scc(-c3ccccc3)c12 [TPH104e] shows pIC50 of no less than 5? criterion not met

Textbook exercise: given the entry Cc1ccc(-c2csc3ncnc(N/N=C/c4ccccc4O)c23)cc1 [TPH104d] , state whether its pIC50 is greater than or equal to 5. criterion met

Could you tell me if the measured pIC50 of Cc1ccc(-c2csc3ncnc(N/N=C/c4ccc(C)cc4O)c23)cc1 [TPH104o] reaches 5 or more? criterion met

Reported pIC50 reaches at least 5 for COc1ccccc1/C=N/Nc1ncnc2scc(-c3ccccc3)c12 [TPH104f] ? criterion not met

Given Oc1c(/C=N/Nc2ncnc3scc(-c4ccccc4)c23)cc2c3c1CCCN3CCC2 [TPH104b] , state whether its pIC50 is at least 5. criterion met

Reported pIC50 reaches at least 5 for COc1ccc(/C=N/Nc2ncnc3scc(-c4ccccc4)c23)c(OC)c1 [TPH104i] ? criterion not met

# check: pIC50 of COc1ccc(/C=N/Nc2ncnc3scc(-c4ccc(C)cc4)c23)c(OC)c1OC [TPH104g] is greater than or equal to 5 criterion not met

Hi team, for CCOc1cc(/C=N/Nc2ncnc3scc(-c4ccccc4)c23)ccc1O [TPH104n] , is the recorded pIC50 at or above 5? criterion not met

Could you tell me if the measured pIC50 of Cc1ccc(-c2csc3ncnc(N/N=C/c4ccc(Br)cc4O)c23)cc1 [TPH104m] reaches 5 or more? criterion not met

----------
System: ZR-75-1 (non-TNBC cell line)
Assay: MTT cell viability assay, ZR-75-1
Assay type: cell-based
Details: Homo sapiens, ZR-75-1, 72 h, read-out: IC50 ± SD, ZR-75-1
METRIC: IC50 (µM)
The answer is to be given in µM; state only the numeric part.

The following compounds have reported results that may help.
{"COMPOUND": "Oc1ccc(/C=N/Nc2ncnc3scc(-c4ccccc4)c23)c(O)c1 [TPH104l]", "IC50 (µM)": 8.68}
{"COMPOUND": "COc1ccc(O)c(/C=N/Nc2ncnc3scc(-c4ccc(C)cc4)c23)c1", "IC50 (µM)": 8.6}

What value of IC50 has been recorded for this entry: COc1cccc(/C=N/Nc2ncnc3scc(-c4ccccc4)c23)c1O [TPH104c] 10.7
